Just for reference, paper PMC9090415 is where these values come from.

Assay system: P. falciparum apicoplast DNA polymerase (Pf-apPOL) (Plasmodium falciparum)
Sequence (Q8ILY1 entry or part of it): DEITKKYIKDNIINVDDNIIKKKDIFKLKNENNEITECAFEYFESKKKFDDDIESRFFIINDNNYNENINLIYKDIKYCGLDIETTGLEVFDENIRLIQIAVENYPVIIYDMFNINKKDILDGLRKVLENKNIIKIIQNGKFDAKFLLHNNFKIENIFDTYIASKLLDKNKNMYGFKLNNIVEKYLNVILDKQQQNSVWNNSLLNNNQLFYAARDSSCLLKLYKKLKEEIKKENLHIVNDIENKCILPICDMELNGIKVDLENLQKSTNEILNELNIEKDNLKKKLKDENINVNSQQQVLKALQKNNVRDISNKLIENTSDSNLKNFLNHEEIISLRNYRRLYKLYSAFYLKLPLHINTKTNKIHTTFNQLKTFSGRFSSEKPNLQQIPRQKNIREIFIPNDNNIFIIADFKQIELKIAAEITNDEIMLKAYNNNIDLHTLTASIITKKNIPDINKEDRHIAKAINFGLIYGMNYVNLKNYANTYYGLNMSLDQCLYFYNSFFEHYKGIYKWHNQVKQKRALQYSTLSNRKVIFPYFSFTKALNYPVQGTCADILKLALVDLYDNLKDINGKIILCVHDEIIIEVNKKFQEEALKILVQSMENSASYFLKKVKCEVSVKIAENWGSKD
Assay name: Fluorescence-based high-throughput DNA polymerase assay (molecular beacon), primary screen and dose-response;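 also: compound concentration given in µM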
Assay type: biochemical
Settings: DRC-2, 40', concentration 80 (unit not given)
Exercise: for every item that follows, state its recorded % inhibition Apol 40'.
Give bare numbers, in %.

Some solved cases for reference:
[[record]]
smiles_record = "CCOc1ccc(/C=C2\\N=C(c3cc([N+](=O)[O-])cc([N+](=O)[O-])c3)OC2=O)cc1"
unit_annotation = "%"
observed_value = 76

[[record]]
smiles_record = "O=C(O)c1ccc(-c2nc3cc(-c4ccc5nc(-c6ccc(C(=O)O)cc6)[nH]c5c4)ccc3[nH]2)cc1"
unit_annotation = "%"
observed_value = 32

[[record]]
smiles_record = "O=[N+]([O-])/C=C/c1ccc(-c2ccc(Br)cc2)o1"
unit_annotation = "%"
observed_value = 48


Attention now turns to another entry.
-- ask Record lookup: for P. falciparum apicoplast DNA polymerase (Pf-apPOL) (Plasmodium falciparum), what % inhibition Apol 40' belongs to NC(=O)c1cc[n+](CC2=C(C(=O)[O-])N3C(=O)[C@@H](NC(=O)[C@@H](c4ccccc4)S(=O)(=O)[O-])[C@H]3SC2)cc1.[Na+] ?
-- reply 76
